meta.source: the supplement of paper PMC11061612

Tested on: SISO (Cervical Carcinoma);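 further: after 72 h of two-drug dosing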
Assay: Bliss excess, mean over the matrix (fraction); higher = more synergy
Bliss excess values by entry
Quick one: just the number, no unit, thanks!

Here is how some molecules turned out for Bliss excess.
MOLECULE	Bliss excess
CC(=O)c1c(C)c2cnc(Nc3ccc(N4CCNCC4)cn3)nc2n(C2CCCC2)c1=O [Palbociclib] + CC1(C)CCC(CN2CCN(c3ccc(C(=O)NS(=O)(=O)c4ccc(NCC5CCOCC5)c([N+](=O)[O-])c4)c(Oc4cnc5[nH]ccc5c4)c3)CC2)=C(c2ccc(Cl)cc2)C1 [Venetoclax] (first compound max 10 µM, 7x7, partner max 1 µM)	-0.0384
CC(=O)Nc1cccc(-n2c(=O)n(C3CC3)c(=O)c3c(Nc4ccc(I)cc4F)n(C)c(=O)c(C)c32)c1 [Trametinib] + Cc1nc(-c2cn3c(n2)-c2ccc(-c4cnn(C(C)(C)C(N)=O)c4)cc2OCC3)n(C(C)C)n1 [Taselisib] (first compound max 1 µM, 7x7, partner max 10 µM)	0.0809

Dear colleague, I am looking for the recorded Bliss excess of the following molecule: Cc1c2c(nn1C)CSCc1cc(n(C)n1)CSc1cc(c3ccccc3c1)OCCCc1c(C(=O)O)n(C)c3c-2c(Cl)ccc13 [AZD5991] + Cc1cc2ncnn2cc1Nc1ncc2c(n1)n(C1CCOCC1)c(=O)n2C [AZD7648] (first compound max 1 µM, 7x7, partner max 10 µM)
-0.0221
